- Subject of test: Full length human CD40 (huCD40) on cells (human, UniProt P25942 21-277)
- Sequence (P25942 21-277): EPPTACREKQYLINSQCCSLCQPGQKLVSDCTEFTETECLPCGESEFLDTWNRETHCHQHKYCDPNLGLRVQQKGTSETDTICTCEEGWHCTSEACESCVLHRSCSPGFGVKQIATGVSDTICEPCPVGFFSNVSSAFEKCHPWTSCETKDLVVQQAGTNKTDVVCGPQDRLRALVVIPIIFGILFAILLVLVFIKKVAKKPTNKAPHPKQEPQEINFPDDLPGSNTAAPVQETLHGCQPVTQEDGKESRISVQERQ
- Measurement notes: cell-based or functional assay
Kindly supply the reported B cells EC50, HLA-DR surface expression, with cross-linker values for the records listed here.

Here are 3 binders together with their reported answers.
B cells EC50, HLA-DR surface expression, with cross-linker measured on C40M67 (antibody, human IgG1, kappa, V domains shown, Full-length IgG1/kappa; from phage display) VH: EVQLLESGGGLVQPGGSLRLSCAASGFTFSDYAMNWVRQAPGKGLEWVSGIKSGGSSKYYADSVKGRFTISRDNSKNTLYLQMNSLRAEDTAVYYCAKHVDFYRALDYWGQGTLVTVSS VL: EIVLTQSPGTLSLSPGERATLSCRASQSVKNSSLAWYQQKPGQAPRLLIYTASSRATGIPDRFSGSGSGTDFTLTISRLEPEDFAVYYCQQSSAPPWTFGQGTKVEIKR = 0.792 ng/mL

B cells EC50, HLA-DR surface expression, with cross-linker measured on C40M9 (antibody, human IgG1, lambda, V domains shown) VH: QLQLQESGPGLVKPSEILSLTCTVSGGSISSSSYYWGWIRQPPGKGLEWIGNIYYRGDTYYSPSLKSRVTISVDTSKNQFSLKLNSVTAADTAVYYCAKGFRFDYWGQGTLVTVSS VL: QSALTQPPSASGSPGQSVTISCTGTSSDVGGYNYVSWYQQHPGKAPKLMIYEVSKRPSGVPDRFSGSKSGNTASLTVSGLQAEDEADYYCSSYAGSNNLVFGGGTKLTVLG = 0.012 ng/mL

B cells EC50, HLA-DR surface expression, with cross-linker measured on C40M18 (antibody, human IgG1, lambda, V domains shown, Full-length IgG1/lambda; from OmniRat (OMT); VH C40H48, VL C40L64) VH: EVQLVESGGGLVQPGGSLRLSCAASGFTFSSYAMSWVRQAPGKGLEWVSIINNNVGRTYYADSVKGRFTISRDNSKNTLYLQMNSLRAEDTAVYYCAKEGGDYYYYGMDVWGQGTTVTVSS VL: SYELTQPPSVSVSPGQTASITCSGDKLGDKYVCWYQQKPGQSPVVVIYQDSKRPSGIPERFSGSNSGNTATLTISGTQAMDEAYYYCQAWVSSTVVFGGGTKLTVLG = 23.9 ng/mL

New cases:
B cells EC50, HLA-DR surface expression, with cross-linker measured on C40M12 (antibody, human IgG1, lambda, V domains shown, Full-length IgG1/lambda; from OmniRat (OMT)) VH: EVQLVESGGGLVQPGGSLRLSCAASGFTFGSYAMSWVRQAPGKGLEWVSVISDSGGRTYYADSVKGRFTISRDYSKNTLYLQMNSLRAEDTAVYYCAKEGGDYYYYGMDVWGQGTTVTVSS VL: SYELTQPPSVSVSPGQTASIICSGDKLGDKYVCWYQQKPGQSPVVVIYHDNKRPSGIPERFSGSNSGNTATLTISGTQAMDEADYYCQVWDSSTVVFGGGTKLTVLG = 4.27 ng/mL
